Please go through the items and note down their tissue uptake at 4 h.
- procedure details: In vivo biodistribution and clearance in PC-3 tumor-bearing mice
- assay setup: male, NMRI-Foxn1 nu/nu, mouse, muscle, iv, total radioactivity; 4 h p.i., i.v.; read-out: % uptake muscle
The figure you give is taken to be in %ID/g; do not add the unit.

Per the record, CC(C)C[C@H](NC(=O)C[C@H](O)[C@H](CC(C)C)NC(=O)[C@H](Cc1c[nH]cn1)NC(=O)CNC(=O)[C@@H](NC(=O)[C@H](C)NC(=O)[C@H](Cc1c[nH]c2ccccc12)NC(=O)[C@H](CCC(N)=O)NC(=O)[C@@H](Cc1ccccc1)NC(=O)CN1CCC(NC(=O)CN2CCN(CC(=O)O)CCN(CC(=O)O)CCN(CC(=O)O)CC2)CC1)C(C)C)C(N)=O [[^177Lu]Lu-RM2, metal not drawn] has tissue uptake at 4 h of 0.01

Record CC(C)CC(CC(C)C)NC(=O)[C@H](Cc1cnc[nH]1)NC(=O)CNC(=O)[C@@H](NC(=O)[C@H](C)NC(=O)[C@H](Cc1c[nH]c2ccccc12)NC(=O)[C@H](CCC(N)=O)NC(=O)[C@@H](Cc1ccccc1)NC(=O)COCC(=O)Nc1ccc(CNC(=O)CN2CCN(CC(=O)O)CCN(CC(=O)O)CCN(CC(=O)O)CC2)cc1)C(C)C [[^177Lu]Lu-NeoB, metal not drawn] . Reported tissue uptake at 4 h: 0.05

---

- procedure details: In vivo biodistribution and clearance in PC-3 tumor-bearing mice
- assay setup: male, NMRI-Foxn1 nu/nu, mouse, gastrointestinal tract, iv, total radioactivity; 72 h p.i., i.v.; read-out: % uptake gastrointestinal tract
Provide the reported tissue uptake at 72 h of each item.
Please give a number only; it is taken to be in %ID/g.

Value of tissue uptake at 72 h reported for the molecule CC(C)CC(CC(C)C)NC(=O)[C@H](Cc1cnc[nH]1)NC(=O)CNC(=O)[C@@H](NC(=O)[C@H](C)NC(=O)[C@H](Cc1c[nH]c2ccccc12)NC(=O)[C@H](CCC(N)=O)NC(=O)[C@@H](Cc1ccccc1)NC(=O)COCC(=O)Nc1ccc(CNC(=O)CN2CCN(CC(=O)O)CCN(CC(=O)O)CCN(CC(=O)O)CC2)cc1)C(C)C [[^177Lu]Lu-NeoB, metal not drawn] is 0.15

Value of tissue uptake at 72 h reported for the molecule CC(C)C[C@H](NC(=O)C[C@H](O)[C@H](CC(C)C)NC(=O)[C@H](Cc1c[nH]cn1)NC(=O)CNC(=O)[C@@H](NC(=O)[C@H](C)NC(=O)[C@H](Cc1c[nH]c2ccccc12)NC(=O)[C@H](CCC(N)=O)NC(=O)[C@@H](Cc1ccccc1)NC(=O)CN1CCC(NC(=O)CN2CCN(CC(=O)O)CCN(CC(=O)O)CCN(CC(=O)O)CC2)CC1)C(C)C)C(N)=O [[^177Lu]Lu-RM2, metal not drawn] is 0.01

---

For each of the compounds below, state its tissue uptake at 24 h.
- procedure details: In vivo biodistribution and clearance in PC-3 tumor-bearing mice
- assay setup: male, NMRI-Foxn1 nu/nu, mouse, gastrointestinal tract, iv, total radioactivity; 24 h p.i., i.v.; read-out: % uptake gastrointestinal tract
Unit %ID/g implied. Number only.

Lab book: tissue uptake at 24 h of CC(C)C[C@H](NC(=O)C[C@H](O)[C@H](CC(C)C)NC(=O)[C@H](Cc1c[nH]cn1)NC(=O)CNC(=O)[C@@H](NC(=O)[C@H](C)NC(=O)[C@H](Cc1c[nH]c2ccccc12)NC(=O)[C@H](CCC(N)=O)NC(=O)[C@@H](Cc1ccccc1)NC(=O)CN1CCC(NC(=O)CN2CCN(CC(=O)O)CCN(CC(=O)O)CCN(CC(=O)O)CC2)CC1)C(C)C)C(N)=O [[^177Lu]Lu-RM2, metal not drawn] noted as 0.05

# compound CC(C)CC(CC(C)C)NC(=O)[C@H](Cc1cnc[nH]1)NC(=O)CNC(=O)[C@@H](NC(=O)[C@H](C)NC(=O)[C@H](Cc1c[nH]c2ccccc12)NC(=O)[C@H](CCC(N)=O)NC(=O)[C@@H](Cc1ccccc1)NC(=O)COCC(=O)Nc1ccc(CNC(=O)CN2CCN(CC(=O)O)CCN(CC(=O)O)CCN(CC(=O)O)CC2)cc1)C(C)C [[^177Lu]Lu-NeoB, metal not drawn] ; its tissue uptake at 24 h = 0.09
